Target: CR16-18 of LRP (P. pastoris) (human, UniProt Q07954 2731-2857)
Sequence (Q07954 2731-2857): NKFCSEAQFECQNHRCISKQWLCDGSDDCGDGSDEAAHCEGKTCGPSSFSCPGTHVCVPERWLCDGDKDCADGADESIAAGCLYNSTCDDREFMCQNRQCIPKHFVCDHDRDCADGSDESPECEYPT
Test: SPR
No end group written: not given here. *: point of attachment. Biotin = O=C1N[C@H]2[C@H](CS[C@H]2CCCCC(=O)*)N1
Quantity Measured: Kd

# input What measured Kd goes with Biotin-LRKLRKRLLRDADDLLRKLRKRLLRDADDL (peptide, UniProt P02649 159-173, looked up) [biotinylated ApoE(141-155)^2 peptide] ?
# output ~200 nM
